- System: AR mRNA
- ASSAY_PROCEDURE: Dose-dependent antisense inhibition of human AR in HuVEC cells (electroporation, qRT-PCR RTS3559, IC50)
- Format: cell-based
- PARTICULARS: Table 35; 750.0 nM, HuVEC, electroporation, approximately 16 hours
Oligonucleotides are written 5' to 3', each unit as a sugar letter and its base; * is a phosphorothioate linkage, no mark a phosphodiester; rarer units and linkages stand in square brackets, end groups in braces. Plain capitals give the bases only. k = constrained ethyl (cEt); [5mC] = 5-methylcytosine; d = 2'-deoxy (DNA)
MEASUREMENT_TYPE: percent inhibition of AR, 750.0 nM

>>> result("584145 (kA*kT*kG*dG*dG*dA*dG*dT*dA*dA*d[5mC]*dT*dT*kT*kT*kG; antisense) [compound 584145]")
"63%"

[Q] GET percent inhibition of AR, 750.0 nM | system: AR mRNA | item: 584111 (kG*kT*kT*dT*dT*d[5mC]*dA*dA*dA*dT*dG*d[5mC]*dA*kG*k[5mC]*k[5mC]; antisense) [compound 584111]
[A] 59%

[Q] Look up and report percent inhibition of AR, 750.0 nM, with AR mRNA as system, for 549372 (kA*kA*kG*dT*dT*dG*dT*dA*dG*dT*dA*dG*dT*k[5mC]*kG*k[5mC]) [compound 549372]
[A] 64%

[Q] State recorded percent inhibition of AR, 750.0 nM with AR mRNA, entry 584162 (kT*kG*kG*dA*dT*dT*dG*dT*dA*dA*dA*dT*dT*kA*k[5mC]*kG; antisense) [compound 584162] , no comment.
[A] 80%

* * *

Here, each record is paired with measured Plasma Creatinine data.
- PARTICULARS: cynomolgus monkey, in vivo, sc, 40 mg/kg

Recorded Plasma Creatinine, per entry:
>>> result("ISIS 584269: antisense compound targeted to human AR (CCTTATGGATGCTGCT; 3-10-3 (S)-cEt gapmer, further chemistry not given here)")
"0.89 mg/dL"
>>> result("ISIS 583918: antisense compound targeted to human AR (AGTCGCGACTCTGGTA; 3-10-3 (S)-cEt gapmer, further chemistry not given here)")
"0.87 mg/dL"
>>> result("TGATTTAATGGTTGCA [ISIS 569221] (cEt/MOE gapmer chemistry, further chemistry not given here)")
"0.86 mg/dL"
>>> result("ISIS 584149: antisense compound targeted to human AR (GTCAATATCAAAGCAC; 3-10-3 (S)-cEt gapmer, further chemistry not given here)")
"0.85 mg/dL"

[Q] For the substance TGATTTAATGGTTGCA [ISIS 569236] (cEt/MOE gapmer chemistry, further chemistry not given here) , give its reported Plasma Creatinine.
[A] 0.87 mg/dL

[Q] Item TTGATTTAATGGTTGC [ISIS 579671] (cEt/MOE gapmer chemistry, further chemistry not given here) : provide Plasma Creatinine
[A] 0.74 mg/dL

[Q] Specify reported Plasma Creatinine for the substance shown: ISIS 584468: antisense compound targeted to human AR (CATTGTACTATGCCAG; 3-10-3 (S)-cEt gapmer, further chemistry not given here)
[A] 0.78 mg/dL

[Q] Write down Plasma Creatinine measured for item GATTTAATGGTTGCAA (cEt gapmer chemistry, further chemistry not given here) [ISIS 586124]
[A] 0.87 mg/dL
